Where do these numbers come from? They come from ChEMBL document CHEMBL5316269.

Listing of recorded pEC50 by entry.
- Subject of test: UniProtKB P19793
- Sequence (P19793 whole entry): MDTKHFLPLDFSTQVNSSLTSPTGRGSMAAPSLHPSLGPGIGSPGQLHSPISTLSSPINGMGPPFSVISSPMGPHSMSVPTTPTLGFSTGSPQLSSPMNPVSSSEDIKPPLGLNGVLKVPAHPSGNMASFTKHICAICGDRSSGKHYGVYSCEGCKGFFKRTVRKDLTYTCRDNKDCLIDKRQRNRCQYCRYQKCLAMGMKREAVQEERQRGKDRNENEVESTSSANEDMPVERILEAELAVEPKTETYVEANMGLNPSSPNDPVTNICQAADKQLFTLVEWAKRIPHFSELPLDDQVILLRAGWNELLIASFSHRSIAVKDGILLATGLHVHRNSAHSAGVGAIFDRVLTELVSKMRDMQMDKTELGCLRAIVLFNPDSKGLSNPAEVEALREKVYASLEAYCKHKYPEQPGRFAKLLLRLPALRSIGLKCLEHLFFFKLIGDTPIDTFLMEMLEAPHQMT
- Assay overview: Agonist activity at human GAL4-fused RXRalpha LBD expressed in human HEK293T cells cotransfected with pFR-Luc and pRL-SV40 assessed as increase in luciferase activity incubated for 16 hrs by Dual-Glo luciferase assay
Note: pEC50 values are expressed as the negative base-10 logarithm of concentration in M.

Look up pEC50: O=C(O)c1cccc(COc2cccc3c2CCC3)c1
5.15

Look up pEC50: O=C(O)c1ccc(COc2cccc3c2CCC3)cc1F
6.10

Look up pEC50: Cc1ccc(OCc2ccc(CC(=O)O)cc2)c2c1CCC2
5.62
